Assay: chemical genetic growth profiling, strain panel (AID 1159580);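 also: tested at 20 µM; growth read once vehicle control cultures reached saturation at 30 °C; 1 = growth at the plate median or of vehicle wells; lower values mean less growth of the strain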
Details: S. cerevisiae deletion strains, growth OD, locus YDL101C, strain DUN1, stronger effect = lower value
Screen size: about 5,500 compounds; about 2,000 (36%) were called active. Inconclusive results (about 18%) are left out. Some of the results follow.
value-kind: normalized growth
Give your answer as a number; write no unit.

Input: Indicate its recorded normalized growth; the compound in question is N/C(=N/O)c1cnccc1C(F)(F)F
Output: 1.01

Input: Indicate its recorded normalized growth; the compound in question is O=[N+]([O-])c1cc(C(F)(F)F)ccc1Sc1ccc(Cl)cc1
Output: 1

Input: Indicate its recorded normalized growth; the compound in question is CN(C)CCC[C@@]1(c2ccc(F)cc2)OCc2cc(C#N)ccc21
Output: 1.02

Input: Indicate its recorded normalized growth; the compound in question is O=[N+]([O-])c1cc(C(F)(F)F)cc([N+](=O)[O-])c1Oc1ccc(Cl)c(Cl)c1
Output: 0.0834

Input: Indicate its recorded normalized growth; the compound in question is Cc1cc(Sc2c([N+](=O)[O-])cc(C(F)(F)F)cc2[N+](=O)[O-])c(Cl)cc1Cl
Output: 0.995

Input: Indicate its recorded normalized growth; the compound in question is CC(=O)OC1CCC2(O)CC1(C)CCC1C2CC1(C)C (configuration not stated)
Output: 0.992

Input: Indicate its recorded normalized growth; the compound in question is Cc1cc(Oc2c([N+](=O)[O-])cc(C(F)(F)F)cc2[N+](=O)[O-])c2c(Cl)ccc(C)c2n1
Output: 0.987

Input: Indicate its recorded normalized growth; the compound in question is COc1ccc(Oc2ccc(C(F)(F)F)cc2[N+](=O)[O-])cc1
Output: 0.924

Input: Indicate its recorded normalized growth; the compound in question is COc1ccc(/C=C2/C(=O)N(c3cccc(Cl)c3)N=C2C)cc1
Output: 1

Input: Indicate its recorded normalized growth; the compound in question is CC(C)(C)S(=O)(=O)c1cnc(N)nc1N
Output: 1

Input: Indicate its recorded normalized growth; the compound in question is CNC(=O)N(C)c1nnc(C(C)(C)C)s1
Output: 1.02

Input: Indicate its recorded normalized growth; the compound in question is Cn1ncc(-c2nc(-c3ccc(Cl)cc3)cs2)c1N
Output: 0.961

----------
Assay: chemical genetic growth profiling, strain panel (AID 1159580);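 also: tested at 20 µM; growth read once vehicle control cultures reached saturation at 30 °C; 1 = growth at the plate median or of vehicle wells; lower values mean less growth of the strain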
Conditions: S. cerevisiae deletion strains, growth OD, locus YBR136W, strain MEC1, stronger effect = lower value
Hit rate of the full screen: of about 5,500 compounds, about 2,000 (36%) were called active. Inconclusive results (about 18%) are left out. The list shows a part of the results.
value-kind: normalized growth
Give your answer as a number; write no unit.

Input: Indicate its recorded normalized growth; the molecule in question is O=C(Nc1cc(Cl)cc(Cl)c1)c1cc(Cl)ccc1O
Output: 0.943

Input: Indicate its recorded normalized growth; the molecule in question is Cc1csc2c(N3CCN(C(=S)Nc4ccc(C(F)(F)F)cc4)CC3)ncnc12
Output: 0.982

Input: Indicate its recorded normalized growth; the molecule in question is COC(=S)Nc1cc(Cl)cc(Cl)c1
Output: 0.94

Input: Indicate its recorded normalized growth; the molecule in question is CC(=O)c1ccc(Sc2ccccc2)c([N+](=O)[O-])c1
Output: 0.874

Input: Indicate its recorded normalized growth; the molecule in question is O=C(Nc1cc(Cl)cc(Cl)c1)c1cc(Br)ccc1O
Output: 0.949

Input: Indicate its recorded normalized growth; the molecule in question is CC(C)c1cccc(C(C)C)c1OC(=O)NC(=O)c1c(Cl)cccc1Cl
Output: 0.989

Input: Indicate its recorded normalized growth; the molecule in question is O=S(=O)(Nc1c(F)cccc1F)c1ccc(Cl)c(Cl)c1
Output: 0.943

Input: Indicate its recorded normalized growth; the molecule in question is O=C1c2ccccc2C(=O)c2sccc21
Output: 0.718

Input: Indicate its recorded normalized growth; the molecule in question is O=[N+]([O-])c1ccc(Sc2ccccc2)c([N+](=O)[O-])c1
Output: 0.884

Input: Indicate its recorded normalized growth; the molecule in question is N/C(=N/OCc1c(F)cccc1Cl)c1ccc(Cl)cc1
Output: 0.92

Input: Indicate its recorded normalized growth; the molecule in question is Cn1cc(Br)c(-c2cccc(NS(=O)(=O)c3ccc(Cl)cc3)c2)n1
Output: 0.995

Input: Indicate its recorded normalized growth; the molecule in question is NNC(=O)c1oc2nc(-c3ccccc3)cc(-c3ccccc3)c2c1N
Output: 0.985

----------
Assay: chemical genetic growth profiling, strain panel (AID 1159580);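 also: tested at 20 µM; growth read once vehicle control cultures reached saturation at 30 °C; 1 = growth at the plate median or of vehicle wells; lower values mean less growth of the strain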
Conditions: S. cerevisiae deletion strains, growth OD, locus YLR342W, strain FKS1 (second series), stronger effect = lower value
About 2,000 (36%) of roughly 5,500 compounds were called active. Not shown: some 18% with an inconclusive outcome. The list shows a part of the results.
So I've got a bunch of compounds here, and I need their normalized growth values.
Give your answer as a number; write no unit.

Input: Indicate its recorded normalized growth; the compound in question is O=C(N[C@@H](CO)[C@H](O)c1ccc([N+](=O)[O-])cc1)C(Cl)Cl
Output: 1.01

Input: Indicate its recorded normalized growth; the compound in question is CC(=O)CCCCn1c(=O)c2c(ncn2C)n(C)c1=O
Output: 0.979

Input: Indicate its recorded normalized growth; the compound in question is CCC[C@@H]1C[C@@H](C(=O)N[C@H]([C@H]2O[C@H](SC)[C@H](O)[C@@H](O)[C@H]2O)[C@H](C)O)N(C)C1
Output: 1

Input: Indicate its recorded normalized growth; the compound in question is CNC(=O)Oc1cccc2c1OC(C)(C)C2
Output: 1.02

Input: Indicate its recorded normalized growth; the compound in question is O=c1c(O)c(-c2ccccc2)oc2ccccc12
Output: 1.01

Input: Indicate its recorded normalized growth; the compound in question is CC[C@H]1OC(=O)[C@H](C)[C@@H](O[C@H]2C[C@@](C)(OC)[C@@H](O)[C@H](C)O2)[C@H](C)[C@@H](O[C@@H]2O[C@H](C)C[C@H](N(C)C)[C@H]2O)[C@](C)(O)C[C@@H](C)/C(=N/OCOCCOC)[C@H](C)[C@@H](O)[C@]1(C)O
Output: 1.01

Input: Indicate its recorded normalized growth; the compound in question is Cn1c(=O)[nH]c2nc[nH]c2c1=O
Output: 1.01

Input: Indicate its recorded normalized growth; the compound in question is CN1CCN(C2=Nc3cc(Cl)ccc3Nc3ccccc32)CC1
Output: 1.04

Input: Indicate its recorded normalized growth; the compound in question is C[N+]1(C)CCCC(OC(=O)C(O)(c2ccccc2)c2ccccc2)C1 (stereo not given)
Output: 1.01

Input: Indicate its recorded normalized growth; the compound in question is CCCCN(CC)c1c([N+](=O)[O-])cc(C(F)(F)F)cc1[N+](=O)[O-]
Output: 1.08

Input: Indicate its recorded normalized growth; the compound in question is C[C@]12[C@H](O)CC3C(CC[C@@H]4C[C@@H](O)CC[C@]34C)[C@@]1(O)CC[C@@H]2C1=CC(=O)OC1 (stereo not given in full)
Output: 1.05

Input: Indicate its recorded normalized growth; the compound in question is C=C(C)C1Cc2c(ccc(C(=O)O)c2O)O1 (stereo not given)
Output: 0.998

Input: Indicate its recorded normalized growth; the compound in question is Cc1cc(O)c2c(c1)C(=O)c1cc(O)cc(O)c1C2=O
Output: 0.553

Input: Indicate its recorded normalized growth; the compound in question is O[C@H]1[C@H](O)[C@@H](O)C2OC[C@H]1O2
Output: 1.04

Input: Indicate its recorded normalized growth; the compound in question is COc1ccccc1OCC(O)COC(N)=O (stereo not given)
Output: 1.01

Input: Indicate its recorded normalized growth; the compound in question is O=C(O)CC[N+](=O)[O-]
Output: 0.998

Input: Indicate its recorded normalized growth; the compound in question is NC(=NCCCCCCN=C(N)N=C(N)Nc1ccc(Cl)cc1)N=C(N)Nc1ccc(Cl)cc1
Output: 0.0692

Input: Indicate its recorded normalized growth; the compound in question is COc1cc(O)ccc1C(C)=O
Output: 1.07

Input: Indicate its recorded normalized growth; the compound in question is C[C@H]1C(=O)CCC2[C@]3(C)CC[C@@]4(C)C5CC(C)(C)CC[C@]5(C)CC[C@]4(C)C3CC[C@@]21C (stereo not given in full)
Output: 0.992

Input: Indicate its recorded normalized growth; the compound in question is COc1cc(O)c2c(c1)C(=O)c1cc(C)cc(O)c1C2=O
Output: 1.02

Input: Indicate its recorded normalized growth; the compound in question is O=C(c1ccccc1)c1ccc2n1CCC2C(=O)O (stereo not given)
Output: 0.998

Input: Indicate its recorded normalized growth; the compound in question is Cn1c(=O)c2c(ncn2C)n(C)c1=O
Output: 1.03

Input: Indicate its recorded normalized growth; the compound in question is CNC(C)[C@@H]1CC[C@@H](N)[C@@H](OC2[C@@H](N)C[C@@H](N)[C@H](OC3OC[C@](C)(O)[C@H](NC)[C@H]3O)[C@H]2O)O1 (stereo not given in full)
Output: 0.996

Input: Indicate its recorded normalized growth; the compound in question is CC(=O)Oc1c(C)c(C)c2c(c1C)CCC(C)(CCCC(C)CCCC(C)CCCC(C)C)O2 (stereo not given)
Output: 1.04

Input: Indicate its recorded normalized growth; the compound in question is CC(=O)OCC1=C(C(=O)O)N2C(=O)[C@@H](NC(=O)CSc3ccncc3)[C@H]2SC1
Output: 0.986

Input: Indicate its recorded normalized growth; the compound in question is CCCCCC/C=C\CCCCCCCc1cccc(O)c1C(=O)O
Output: 1.03

Input: Indicate its recorded normalized growth; the compound in question is COc1ccc(NS(=O)(=O)c2ccc(N)cc2)nn1
Output: 1.01

Input: Indicate its recorded normalized growth; the compound in question is CN1C(=O)CC[C@H]1c1cccnc1
Output: 1.01

Input: Indicate its recorded normalized growth; the compound in question is COC(=O)C[C@H]1C(C)(C)[C@@H](OC(C)=O)[C@@H]2CC3=C4CC(=O)O[C@@H](c5ccoc5)[C@]4(C)CCC3[C@@]1(C)C2=O (stereo not given in full)
Output: 1.02

Input: Indicate its recorded normalized growth; the compound in question is C=C[C@H]1CN2CC[C@H]1C[C@H]2[C@H](O)c1ccnc2ccccc12
Output: 0.995

Input: Indicate its recorded normalized growth; the compound in question is C[N+]12CCC(CC1)C(OC(=O)C(O)(c1ccccc1)c1ccccc1)C2 (stereo not given)
Output: 1.01

Input: Indicate its recorded normalized growth; the compound in question is O=C(O)CCC(=O)OC[C@@H](NC(=O)C(Cl)Cl)[C@H](O)c1ccc([N+](=O)[O-])cc1
Output: 1.01

Input: Indicate its recorded normalized growth; the compound in question is CC(C)OC(=O)Nc1cccc(Cl)c1
Output: 0.944

Input: Indicate its recorded normalized growth; the compound in question is CCCC(=O)Nc1ccc(OCC(O)CNC(C)C)c(C(C)=O)c1 (stereo not given)
Output: 1

Input: Indicate its recorded normalized growth; the compound in question is O=C(Nc1ccc([N+](=O)[O-])cc1Cl)c1cc(Cl)ccc1O
Output: 0.667
